# Tested on: Plasmodium berghei
# Measurement Protocol: Luciferase/luciferin-expressing antifolate-resistant parasites were used to infect a culture of HepG2 cells that were pre-incubated with compounds. Infected hepatocytes emit light due to the luciferase reaction. Assay results are presented as the percent inhibition of light emission compared to control. […]
# Assay type: functional
# Settings: sporozoite, HEPG2TOX_HILL_SLOPE 2, HEPG2TOX_R_SQUARED 0.972, PBLUC_HILL_SLOPE 2.11, PBLUC_R_SQUARED 0.172, read-out: LUCIFERASE INFECTION ASSAY - IC50
Value Type: pIC50
# pIC50 = -log10(concentration in molar units)

Task item: Suppose we examine the molecule Nc1nccc(/C=C/c2c(F)cccc2Cl)n1 ; what pIC50 value has been reported?
Reply: 5.05

###

# System: Plasmodium berghei
# Measurement Protocol: Luciferase/luciferin-expressing antifolate-resistant parasites were used to infect a culture of HepG2 cells that were pre-incubated with compounds. Infected hepatocytes emit light due to the luciferase reaction. Assay results are presented as the percent inhibition of light emission compared to control. […]
# Assay type: functional
# Settings: sporozoite, PBLUC_HILL_SLOPE 15.9, PBLUC_R_SQUARED 0.656, read-out: LUCIFERASE INFECTION ASSAY - IC50
Value Type: pIC50
# pIC50 = -log10(concentration in molar units)

Task item: Suppose we examine the molecule COc1cc2c(cc1OC)CN(c1nc(CN3CCOCC3)nc3sc4c(c13)CCC(C)C4)CC2 (stereo unspecified) ; what pIC50 value has been reported?
Reply: 5.47

###

# System: Plasmodium berghei
# Measurement Protocol: Luciferase/luciferin-expressing antifolate-resistant parasites were used to infect a culture of HepG2 cells that were pre-incubated with compounds. Infected hepatocytes emit light due to the luciferase reaction. Assay results are presented as the percent inhibition of light emission compared to control. […]
# Type: functional
# Settings: sporozoite, PBLUC_HILL_SLOPE 1.16, PBLUC_R_SQUARED 0.583, read-out: LUCIFERASE INFECTION ASSAY - IC50
Value Type: pIC50
# pIC50 = -log10(concentration in molar units)

Task item: Suppose we examine the compound OC[C@H]1O[C@@H](c2nc(-c3nc(-c4ccc5[nH]ccc5c4)no3)cs2)[C@H](O)[C@@H]1O ; what pIC50 value has been reported?
Reply: 6.63

###

# Test system: Plasmodium berghei
# Measurement Protocol: Luciferase/luciferin-expressing antifolate-resistant parasites were used to infect a culture of HepG2 cells that were pre-incubated with compounds. Infected hepatocytes emit light due to the luciferase reaction. Assay results are presented as the percent inhibition of light emission compared to control. […]
# Type: functional
# Settings: sporozoite, HEPG2TOX_HILL_SLOPE 1.97, HEPG2TOX_R_SQUARED 0.914, PBLUC_HILL_SLOPE 1.12, PBLUC_R_SQUARED 0.781, read-out: LUCIFERASE INFECTION ASSAY - IC50
Value Type: pIC50
# pIC50 = -log10(concentration in molar units)

Task item: Suppose we examine the molecule OCc1ccc(-c2cnc3ccc(-c4ccc(F)cc4)nn23)cc1 ; what pIC50 value has been reported?
Reply: 6.13

###

# System: Plasmodium berghei
# Measurement Protocol: Luciferase/luciferin-expressing antifolate-resistant parasites were used to infect a culture of HepG2 cells that were pre-incubated with compounds. Infected hepatocytes emit light due to the luciferase reaction. Assay results are presented as the percent inhibition of light emission compared to control. […]
# Format: functional
# Settings: sporozoite, HEPG2TOX_HILL_SLOPE 0.393, HEPG2TOX_R_SQUARED 0.924, PBLUC_HILL_SLOPE 2.39, PBLUC_R_SQUARED 0.338, read-out: LUCIFERASE INFECTION ASSAY - IC50
Value Type: IC50 (µM)
The reply should contain only the number, in µM.

Task item: Suppose we examine the compound CN(Cc1ccc(N2CCCCC2)cc1)C(=O)c1cc(-c2cccnc2)nc2ccccc12 ; what IC50 value has been reported?
Reply: 4.33
